Listed compounds paired with reported TGI
System: MDA-MB-435
Test: NCI tumour cell line growth inhibition, 48 h
quantity: TGI (µM)

>>> print(df.to_string())
                                   compound  assay_target  cmp  readout_number
0   N=C(N)c1ccc(NCCOCCNc2ccc(C(=N)N)cc2)cc1    MDA-MB-435    >             100
1          N#Cc1c(Cl)nc2ccccc2c1N=[N+]=[N-]    MDA-MB-435    =            17.7
2  CC(=O)C1=C(C)N(C)C2(O)C=CC(=O)C3=C(O)c4ccccc4C(=O)C312 (centres undefined)    MDA-MB-435    =            3.89
3  CC(C)(C)OC(=O)C1=C2C=C(O)C=CC2(C)N(Cc2ccccc2)C1=N (centres undefined)    MDA-MB-435    =            21.5
4  C[n+]1c(-c2ccc(/C=N/NC(=O)c3ccc(C(=O)N/N=C/c4ccc(-c5cn6ccccc6[n+]5C)cc4)cc3)cc2)cn2ccccc21    MDA-MB-435    >            1000
5  COc1ccc(/C=C2\CN(Cc3cn(CCNc4ccnc5cc(Cl)ccc45)nn3)C/C(=C\c3ccc(OC)c(OC)c3)C2=O)cc1OC    MDA-MB-435    =            19.1
6  CCOC(=O)CCC(NC(=O)OCc1ccccc1)C(=O)NC(CCC(=O)OCC)C(=O)NNC(=O)OC(C)(C)C (centres undefined)    MDA-MB-435    >             100
7  CN(C)CC(C(=O)Cc1ccccc1)c1ccccc1 (centres undefined)    MDA-MB-435    =            12.2
8  O=C(NC(Nc1ccc(F)cc1)(C(F)(F)F)C(F)(F)F)C(C(F)(F)F)C(F)(F)F    MDA-MB-435    >             100

====

Test system: MDA-MB-435
Experiment: NCI tumour cell line growth inhibition, 48 h
quantity: TGI

In [3]: df
Out[3]:
                                   molecule    result
0             Cc1ccc(N2CCN(CCC(=O)O)CC2)cc1  > 100 µM
1  CCCCc1n(Cc2ccc3ccccc3c2)cc[n+]1Cc1ccc2ccccc2c1   2.26 µM
2            COc1ccc(/C=C2/NC(=S)N=C2Cl)cc1  > 100 µM
3  CCOC(=O)c1nc2ccccc2nc1Oc1cc(OC)c(OC)c(OC)c1  > 100 µM
4  O=C(CC(=O)N1N=C(N(c2ccccc2)c2ccccc2)CC1c1ccccc1)Nc1ccc(Cl)cc1 (stereo not given)  > 100 µM
5  COC(=O)c1c[nH]c2c1-c1cc(C(=O)OCc3ccccc3)n(S(=O)(=O)c3ccc(C)cc3)c1C(=O)C2=O  0.135 µM
6  Cc1ccc(C2=Nc3c(N)ncnc3NC(c3ccc4c(c3)OCO4)C2)cc1 (stereo not given)   4.12 µM
7                    N#Cc1nc(-c2ccccn2)oc1N  > 100 µM
8  Cc1nc2ccc(NC3OC(CO)C(O)C(O)C3O)cc2c(=O)n1-c1ccccc1 (stereo not given)  > 100 µM
9  COc1cc([C@@]23OC[C@@H]4[C@@H](OC[C@@H]42)c2cc4c(cc23)OCO4)cc(OC)c1OC  > 100 µM
